Exercise: for every item that follows, state its recorded IC50.
- assayed system: Voltage-dependent T-type calcium channel subunit alpha-1G (Homo sapiens)
- Sequence (O43497 whole entry): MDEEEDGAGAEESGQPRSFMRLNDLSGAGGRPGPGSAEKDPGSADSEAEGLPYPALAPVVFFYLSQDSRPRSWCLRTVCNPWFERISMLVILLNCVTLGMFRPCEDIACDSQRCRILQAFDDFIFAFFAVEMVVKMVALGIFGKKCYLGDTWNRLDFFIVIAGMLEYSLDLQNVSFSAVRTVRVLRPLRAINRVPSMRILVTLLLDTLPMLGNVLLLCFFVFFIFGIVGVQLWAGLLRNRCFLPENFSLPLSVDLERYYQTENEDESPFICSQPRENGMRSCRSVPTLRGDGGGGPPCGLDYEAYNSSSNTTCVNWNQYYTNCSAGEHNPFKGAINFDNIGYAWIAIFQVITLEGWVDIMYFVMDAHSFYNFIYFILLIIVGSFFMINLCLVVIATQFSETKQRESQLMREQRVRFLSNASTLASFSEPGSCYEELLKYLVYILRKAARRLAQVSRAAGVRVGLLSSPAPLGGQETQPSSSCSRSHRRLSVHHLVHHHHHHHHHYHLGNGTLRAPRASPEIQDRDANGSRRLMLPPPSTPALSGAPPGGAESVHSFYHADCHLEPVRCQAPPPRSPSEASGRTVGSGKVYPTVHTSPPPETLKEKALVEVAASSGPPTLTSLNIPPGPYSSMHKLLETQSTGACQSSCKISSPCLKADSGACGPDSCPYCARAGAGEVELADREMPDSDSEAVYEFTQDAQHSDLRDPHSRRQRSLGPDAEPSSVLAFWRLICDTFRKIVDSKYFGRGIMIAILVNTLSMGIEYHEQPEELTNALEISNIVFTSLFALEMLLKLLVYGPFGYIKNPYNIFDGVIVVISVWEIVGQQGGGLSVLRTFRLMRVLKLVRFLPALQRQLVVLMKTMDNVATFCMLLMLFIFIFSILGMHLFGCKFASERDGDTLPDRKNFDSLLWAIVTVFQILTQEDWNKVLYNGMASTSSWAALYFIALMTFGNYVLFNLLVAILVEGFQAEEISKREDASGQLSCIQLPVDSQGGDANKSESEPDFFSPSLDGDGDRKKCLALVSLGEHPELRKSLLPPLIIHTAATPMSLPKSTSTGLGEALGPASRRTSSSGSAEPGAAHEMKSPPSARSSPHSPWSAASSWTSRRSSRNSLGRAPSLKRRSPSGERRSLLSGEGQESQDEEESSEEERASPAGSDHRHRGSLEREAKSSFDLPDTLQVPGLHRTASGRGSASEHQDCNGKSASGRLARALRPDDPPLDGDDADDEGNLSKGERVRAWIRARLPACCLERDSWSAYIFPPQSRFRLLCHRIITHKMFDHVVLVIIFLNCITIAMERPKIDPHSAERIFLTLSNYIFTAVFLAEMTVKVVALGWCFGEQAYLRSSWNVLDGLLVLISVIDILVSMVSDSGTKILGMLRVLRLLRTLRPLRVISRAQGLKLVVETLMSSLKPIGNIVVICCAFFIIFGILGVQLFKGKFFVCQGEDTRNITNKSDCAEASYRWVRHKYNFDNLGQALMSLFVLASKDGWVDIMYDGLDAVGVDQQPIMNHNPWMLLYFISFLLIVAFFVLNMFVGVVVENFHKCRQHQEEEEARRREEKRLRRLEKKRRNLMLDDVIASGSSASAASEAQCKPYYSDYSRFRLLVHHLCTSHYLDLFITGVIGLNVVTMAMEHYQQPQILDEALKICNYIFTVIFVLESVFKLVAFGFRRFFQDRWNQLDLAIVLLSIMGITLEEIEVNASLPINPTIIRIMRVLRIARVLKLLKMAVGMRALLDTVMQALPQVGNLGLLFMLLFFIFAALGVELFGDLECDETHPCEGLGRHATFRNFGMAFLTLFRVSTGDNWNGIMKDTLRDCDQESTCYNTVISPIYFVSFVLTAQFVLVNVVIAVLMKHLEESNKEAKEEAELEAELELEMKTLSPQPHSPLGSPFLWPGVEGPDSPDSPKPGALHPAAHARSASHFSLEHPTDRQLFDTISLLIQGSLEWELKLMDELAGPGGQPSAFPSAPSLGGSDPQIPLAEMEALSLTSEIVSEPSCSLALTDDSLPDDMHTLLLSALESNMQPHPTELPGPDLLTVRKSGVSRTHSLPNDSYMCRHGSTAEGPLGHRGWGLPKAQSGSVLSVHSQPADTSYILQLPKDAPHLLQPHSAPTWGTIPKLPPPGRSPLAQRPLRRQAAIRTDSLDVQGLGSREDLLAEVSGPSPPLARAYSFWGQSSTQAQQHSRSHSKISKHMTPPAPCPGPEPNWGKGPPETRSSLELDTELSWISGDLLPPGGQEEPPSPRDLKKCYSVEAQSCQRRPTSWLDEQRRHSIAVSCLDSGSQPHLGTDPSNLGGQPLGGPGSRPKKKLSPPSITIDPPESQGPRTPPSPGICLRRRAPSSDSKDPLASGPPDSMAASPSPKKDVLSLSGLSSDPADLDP
- test description: Inhibition of human CaV3.1 expressed in HEK293 cells assessed as suppression of T-current after 10 mins by whole cell patch clamp method
Respond numerically; units are nM and should not be typed.

Query :: Look up IC50: CC(C)=CCc1c(O)cc(O)c2c1O[C@H](c1ccc(O)cc1)CC2=O
Result :: 1000

Query :: // next record C=C(C)[C@H](CC=C(C)C)Cc1c(O)cc(O)c2c1O[C@H](c1ccc(O)cc1O)CC2=O
Result :: 1000

Query :: Here is the next compound: CC(C)=CCc1c(O)cc2c(c1O)C(=O)CC(c1ccc(O)cc1)O2 (racemic)
Result :: 1000
